Each recorded value in this set is attributed to patent USRE36187E.

# ASSAY_EXPLANATION: Visual cytotoxicity in BSC-1 cells
# Format: cell-based, African green monkey
# CONDITION_DESCRIPTION: monkey, visual cytotoxicity at time of HSV-1 plaque enumeration, read-out: 50% Inhibitory Concentration, Cytotoxicity BSC
// reported CC50 for each item listed
MEASUREMENT_NAME: CC50

>>> print(df.to_string())
                                   compound  observed_result
0  Nc1nc(O)c2ncn(COC(CO)CO)c2n1 [Ganciclovir (DHPG), reference compound]         > 100 µM
1  Nc1nc2c(ncn2COCCO)c(=O)[nH]1 [Acyclovir, reference compound]         > 100 µM
